Test system: CAL-51
EXPERIMENTAL_DETAILS: normalised response (% of control), CellTox Green; higher = less cell death (100 = DMSO, 0 = benzethonium chloride kill control)
CONDITIONS_USED: incubation time: 72 h
Note to self: values exactly at 90% are Y. So normalised response at or above 90% is Y, below is N.

Inquiry: Textbook exercise: given the entry CC[C@H](CC#N)OC(=O)N[C@@H](C)c1cccc(NC(=O)Nc2ccc(-c3cnco3)c(OC)c2)c1 [AVN944] (10000 nM) , state whether its normalised response is greater than or equal to 90%.
Reply text: N

Inquiry: Textbook exercise: given the entry CO[C@H](C(=O)[C@@H](O)[C@@H](C)O)[C@@H]1Cc2cc3cc(O[C@H]4C[C@@H](O[C@@H]5C[C@@H](O)[C@H](O)[C@@H](C)O5)[C@H](O)[C@@H](C)O4)c(C)c(O)c3c(O)c2C(=O)[C@H]1O[C@H]1C[C@@H](O[C@@H]2C[C@@H](O)[C@@H](O[C@@H]3C[C@](C)(O)[C@H](O)[C@@H](C)O3)[C@@H](C)O2)[C@H](O)[C@@H](C)O1 [Plicamycin] (100 nM) , state whether its normalised response is greater than or equal to 90%.
Reply text: N

Inquiry: Textbook exercise: given the entry NC1(c2ccc(-c3nc4ccn5c(=O)[nH]nc5c4cc3-c3ccccc3)cc2)CCC1 [MK-2206] (100 nM) , state whether its normalised response is greater than or equal to 90%.
Reply text: Y

Inquiry: Textbook exercise: given the entry CC(C)C[C@H](NC(=O)[C@H](CCc1ccccc1)NC(=O)CN1CCOCC1)C(=O)N[C@@H](Cc1ccccc1)C(=O)N[C@@H](CC(C)C)C(=O)[C@@]1(C)CO1 [Carfilzomib] (100 nM) , state whether its normalised response is greater than or equal to 90%.
Reply text: N

Inquiry: Textbook exercise: given the entry CCN(CC)CCOc1ccc(C(=C(Cl)c2ccccc2)c2ccccc2)cc1 [Clomifene] (10000 nM) , state whether its normalised response is greater than or equal to 90%.
Reply text: Y

Inquiry: Textbook exercise: given the entry COc1cc2c(Oc3ccc(NC(=O)C4(C(=O)Nc5ccc(F)cc5)CC4)cc3F)ccnc2cc1OCCCN1CCOCC1 [Foretinib] (10 nM) , state whether its normalised response is greater than or equal to 90%.
Reply text: Y

Inquiry: Textbook exercise: given the entry Cc1c(N)nc([C@H](CC(N)=O)NC[C@H](N)C(N)=O)nc1C(=O)N[C@H](C(=O)N[C@H](C)[C@@H](O)[C@H](C)C(=O)N[C@H](C(=O)NCCc1nc(-c2nc(C(=O)NCCC[S+](C)C)cs2)cs1)[C@@H](C)O)[C@@H](OC1OC(CO)C(O)C(O)C1OC1OC(CO)C(O)C(OC(N)=O)C1O)c1cnc[nH]1 (stereo partly specified) [Bleomycin] (10000 nM) , state whether its normalised response is greater than or equal to 90%.
Reply text: N

Inquiry: Textbook exercise: given the entry CCc1cnn2c(NCc3ccc[n+]([O-])c3)cc(N3CCCC[C@H]3CCO)nc12 [Dinaciclib] (100 nM) , state whether its normalised response is greater than or equal to 90%.
Reply text: N

Inquiry: Textbook exercise: given the entry COc1cc(Nc2ncc(F)c(Nc3ccc4c(n3)N(COP(=O)(O)O)C(=O)C(C)(C)O4)n2)cc(OC)c1OC [Fostamatinib] (25 nM) , state whether its normalised response is greater than or equal to 90%.
Reply text: Y

Inquiry: Textbook exercise: given the entry O=C(c1cc(Cc2n[nH]c(=O)c3ccccc23)ccc1F)N1CCN(C(=O)C2CC2)CC1 [Olaparib] (100 nM) , state whether its normalised response is greater than or equal to 90%.
Reply text: N

Inquiry: Textbook exercise: given the entry Nc1nc(Cl)nc2c1ncn2[C@@H]1O[C@H](CO)[C@@H](O)[C@@H]1F [Clofarabine] (10000 nM) , state whether its normalised response is greater than or equal to 90%.
Reply text: N

====

Consider the following molecules; for each one, report its normalised viability.
System: HCC1937
EXPERIMENTAL_DETAILS: normalised viability (% of control), CellTiter-Blue; higher = more viable cells (about 100 = DMSO control)
CONDITIONS_USED: 10000 nM; incubation time: 72 h
Provide only the numeric value, understood in %.

Inquiry: Give reported normalised viability value for `C[C@@H](C(=O)O)c1ccc(-c2ccccc2)c(F)c1`
Reply text: 102

Inquiry: Give reported normalised viability value for Cn1nnc2c(C(N)=O)ncn2c1=O [Temozolomide]
Reply text: 116

Inquiry: Give reported normalised viability value for NC(=O)NO [Hydroxyurea]
Reply text: 81.2

Inquiry: Give reported normalised viability value for `Cc1c(C(=O)Nc2ccc(N3C[C@@H](C)O[C@@H](C)C3)nc2)cccc1-c1ccc(OC(F)(F)F)cc1`
Reply text: 82.1

====

Tested on: MDA-MB-468
EXPERIMENTAL_DETAILS: normalised viability (% of control), CellTiter-Blue; higher = more viable cells (about 100 = DMSO control)
CONDITIONS_USED: 1000 nM; incubation time: 72 h
PROPERTY_NAME: normalised viability

Inquiry: Give reported normalised viability value for CCN(CC)CCOc1ccc(C(=C(Cl)c2ccccc2)c2ccccc2)cc1 [Clomifene]
Reply text: 98.1%

Inquiry: Give reported normalised viability value for CO[C@H]1C[C@@H]2CC[C@@H](C)[C@@](O)(O2)C(=O)C(=O)N2CCCC[C@H]2C(=O)O[C@H]([C@H](C)C[C@@H]2CC[C@@H](O)[C@H](OC)C2)CC(=O)[C@H](C)/C=C(\C)[C@@H](O)[C@@H](OC)C(=O)[C@H](C)C[C@H](C)/C=C/C=C/C=C/1C [Sirolimus]
Reply text: 69.5%

Inquiry: Give reported normalised viability value for CN1CCN(c2nc(C3=C(c4c[nH]c5ccccc45)C(=O)NC3=O)c3ccccc3n2)CC1 [Sotrastaurin]
Reply text: 93%

Inquiry: Give reported normalised viability value for Cc1c(C(=O)Nc2ccc(N3C[C@@H](C)O[C@@H](C)C3)nc2)cccc1-c1ccc(OC(F)(F)F)cc1 [NVP-LDE225]
Reply text: 109%

Inquiry: Give reported normalised viability value for C[C@@H]1C[C@H]2[C@@H]3CCC4=CC(=O)C=C[C@]4(C)[C@@]3(F)[C@@H](O)C[C@]2(C)[C@@]1(O)C(=O)CO [Dexamethasone]
Reply text: 112%

Inquiry: Give reported normalised viability value for CC(C)C(=O)Nc1ccc([N+](=O)[O-])c(C(F)(F)F)c1 [Flutamide]
Reply text: 103%

====

System: HCC1143
EXPERIMENTAL_DETAILS: normalised viability (% of control), CellTiter-Blue; higher = more viable cells (about 100 = DMSO control)
CONDITIONS_USED: 1000 nM; incubation time: 72 h
# if measured normalised viability < 90%: 1  # else: -1

Inquiry: Decide: normalised viability of `CC(C)C[C@H](NC(=O)[C@H](CCc1ccccc1)NC(=O)CN1CCOCC1)C(=O)N[C@@H](Cc1ccccc1)C(=O)N[C@@H](CC(C)C)C(=O)[C@@]1(C)CO1` strictly below 90%?
Reply text: 1

Inquiry: Decide: normalised viability of `CN1CCN(c2nc(C3=C(c4c[nH]c5ccccc45)C(=O)NC3=O)c3ccccc3n2)CC1` strictly below 90%?
Reply text: -1

Inquiry: Decide: normalised viability of `CO[C@H]1C[C@@H]2CC[C@@H](C)[C@@](O)(O2)C(=O)C(=O)N2CCCC[C@H]2C(=O)O[C@H]([C@H](C)C[C@@H]2CC[C@@H](O)[C@H](OC)C2)CC(=O)[C@H](C)/C=C(\C)[C@@H](O)[C@@H](OC)C(=O)[C@H](C)C[C@H](C)/C=C/C=C/C=C/1C` strictly below 90%?
Reply text: 1

Inquiry: Decide: normalised viability of `C[C@@H](CN1CC(=O)NC(=O)C1)N1CC(=O)NC(=O)C1` strictly below 90%?
Reply text: -1

Inquiry: Decide: normalised viability of Cc1c(N)nc([C@H](CC(N)=O)NC[C@H](N)C(N)=O)nc1C(=O)N[C@H](C(=O)N[C@H](C)[C@@H](O)[C@H](C)C(=O)N[C@H](C(=O)NCCc1nc(-c2nc(C(=O)NCCC[S+](C)C)cs2)cs1)[C@@H](C)O)[C@@H](OC1OC(CO)C(O)C(O)C1OC1OC(CO)C(O)C(OC(N)=O)C1O)c1cnc[nH]1 (some centres not stated) strictly below 90%?
Reply text: 1

Inquiry: Decide: normalised viability of CC(C)C(=O)Nc1ccc([N+](=O)[O-])c(C(F)(F)F)c1 [Flutamide] strictly below 90%?
Reply text: 1

====

Consider the following molecules; for each one, report its normalised viability.
System: MFM-223
EXPERIMENTAL_DETAILS: normalised viability (% of control), CellTiter-Blue; higher = more viable cells (about 100 = DMSO control)
CONDITIONS_USED: 10000 nM; incubation time: 72 h
Provide only the numeric value, understood in %.

Inquiry: Give reported normalised viability value for CC/C(=C(\c1ccccc1)c1ccc(OCCN(C)C)cc1)c1ccccc1 [Tamoxifen]
Reply text: 54.1

Inquiry: Give reported normalised viability value for Cc1c(N)nc([C@H](CC(N)=O)NC[C@H](N)C(N)=O)nc1C(=O)N[C@H](C(=O)N[C@H](C)[C@@H](O)[C@H](C)C(=O)N[C@H](C(=O)NCCc1nc(-c2nc(C(=O)NCCC[S+](C)C)cs2)cs1)[C@@H](C)O)[C@@H](OC1OC(CO)C(O)C(O)C1OC1OC(CO)C(O)C(OC(N)=O)C1O)c1cnc[nH]1 (stereo not given in full) [Bleomycin]
Reply text: 100

Inquiry: Give reported normalised viability value for NC(=O)c1cccc2cn(-c3ccc([C@@H]4CCCNC4)cc3)nc12 [MK-4827]
Reply text: 111

Inquiry: Give reported normalised viability value for C[C@@H]1C[C@H]2[C@@H]3CCC4=CC(=O)C=C[C@]4(C)[C@@]3(F)[C@@H](O)C[C@]2(C)[C@@]1(O)C(=O)CO [Dexamethasone]
Reply text: 87.2

Inquiry: Give reported normalised viability value for C[C@]12C=CC(=O)C=C1CC[C@@H]1[C@@H]2C(=O)C[C@@]2(C)[C@H]1CC[C@]2(O)C(=O)CO [Prednisone]
Reply text: 94.8
